// reported MIC for each item listed
Tested on: Edwardsiella tarda
Experiment notes: Antibacterial activity against Edwardsiella tarda QDIO-8 assessed as reduction in microbial growth after 24 hrs by serial dilution method
Type: functional
Please respond with the number in µg/mL and leave the unit unwritten.

>>> recorded_value("COc1cc2c(c(O)c1OC/C=C(\\C)CC/C=C(\\C)CCCC(C)(C)O)COC2=O")
8

// moving on: another record for MIC
Q: Look up MIC: `CC(C)=C/C=C\[C@H](C)[C@H]1CC[C@]2(C)C[C@@H]3C(C)=CC(=O)[C@H]3/C(CO)=C\C[C@@H]12`
A: 8

====

// reported MIC for each item listed
Test system: Pseudomonas aeruginosa
Experiment notes: Antibacterial activity against Pseudomonas aeruginosa QDIO-2 assessed as reduction in microbial growth after 24 hrs by serial dilution method
Assay type: functional
Please respond with the number in µg/mL and leave the unit unwritten.

>>> recorded_value("CC(C)=C/C=C\\[C@H](C)[C@H]1CC[C@]2(C)C[C@@H]3C(C)=CC(=O)[C@H]3/C(CO)=C\\C[C@@H]12")
8

// moving on: another record for MIC
Q: Look up MIC: `COc1cc2c(c(O)c1OC/C=C(\C)CC/C=C(\C)CCCC(C)(C)OC(C)=O)COC2=O`
A: 8

====

Tested on: Vibrio anguillarum
Experiment notes: Antibacterial activity against Vibrio anguillarum QDIO-9 assessed as reduction in microbial growth after 24 hrs by serial dilution method
Assay type: functional
Readout: MIC

Answered examples (4):
>>> recorded_value("CC(C)=C/C=C\\[C@H](C)[C@H]1CC[C@]2(C)C[C@H]3[C@@H]4/C(=C\\C[C@@H]12)CO[C@]4(O)C[C@@]3(C)O")
"> 32 µg/mL"
>>> recorded_value("CO[C@]12C[C@@](C)(O)[C@H]3C[C@@]4(C)CC[C@H]([C@@H](C)/C=C\\C=C(C)C)[C@@H]4C/C=C(/CO1)[C@@]32O")
"> 32 µg/mL"
>>> recorded_value("COc1cc2c(c(O)c1OC/C=C(\\C)CC/C=C(\\C)CCCC(C)(C)OC(C)=O)COC2=O")
"> 32 µg/mL"
>>> recorded_value("CC(C)=CCC[C@H](C)[C@H]1CC[C@]2(C)C[C@H]3[C@@H]4/C(=C\\C[C@@H]12)CO[C@]4(O)C[C@@]3(C)O")
"> 32 µg/mL"

Q: Look up MIC: `CC(C)=CCC[C@H](C)[C@H]1CC[C@]2(C)C[C@H]3[C@H]4/C(=C\C[C@@H]12)CO[C@@]4(O)C[C@@]3(C)O`
A: 32 µg/mL

Q: Look up MIC: `COc1cc2c(c(O)c1OC/C=C(\C)CC/C=C(\C)CCC=C(C)C)COC2=O`
A: > 32 µg/mL

Q: Look up MIC: O=C(N[C@H](CO)[C@H](O)c1ccc([N+](=O)[O-])cc1)C(Cl)Cl [CHLORAMPHENICOL]
A: 0.5 µg/mL

Q: Look up MIC: `COc1cc2c(c(O)c1OC/C=C(\C)CC/C=C(\C)CCCC(C)(C)O)COC2=O`
A: > 32 µg/mL

Q: Look up MIC: `CC(C)=C/C=C\[C@H](C)[C@H]1CC[C@]2(C)C[C@@H]3C(C)=CC(=O)[C@H]3/C(CO)=C\C[C@@H]12`
A: 32 µg/mL
